test system: PLK2; details: concentration: 1 μM,replicates: in singlicate; n = 1;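 further: KINOMEscan kinase panel screen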
So I've got a bunch of compounds here, and I need their %Inh values.

Examples with answers:
compound	%Inh
CN(c1ccccc1CNc1nc(Nc2ccc3c(c2)CC(=O)N3)ncc1C(F)(F)F)S(C)(=O)=O	80%
Cn1ccc2ncnc(Oc3ccc(NC(=O)Nc4ccnc(C(F)(F)F)c4)c(Cl)c3)c21	0%
Cc1ccn2nc(-c3ccc(F)cc3)c(-c3ccncc3)c2c1.Cl	0%

Each compound below has a reported value. Please supply its %Inh.
1. COc1cccc(CNC(=O)NC2CCN(c3ccnc(Nc4cc(OC)c(OC)c(OC)c4)n3)C2)c1 (centres unmarked)
2. COC(=O)Nc1nc2cc(Oc3ccc(NC(=O)Nc4cc(C(F)(F)F)ccc4Cl)cc3)ccc2[nH]1.Cl
3. COc1cc2nccc(Nc3ccc(Oc4ccccc4)cc3)c2cc1OC.Cl

Response:
1. 0%
2. 0%
3. 0%

====

test system: CDKL3; details: concentration: 1 μM,replicates: in singlicate; n = 1
So I've got a bunch of compounds here, and I need their %Inh values.
Answers are plain numbers, in %.

Examples with answers:
compound	study-system	measurement-units	reading
NC(=O)Nc1sc(-c2ccc(F)cc2)cc1C(N)=O	CDKL3	%	10
C[C@@H]1CNc2c(sc3ccc4nc(-c5ccc(O)cc5)ccc4c23)C(=O)N1	CDKL3	%	5
CSc1nccc(-c2c(-c3ccc(F)cc3)ncn2CCCN2CCOCC2)n1.Cl	CDKL3	%	0
CS(=O)(=O)c1cccc(CNc2nc(Nc3ccc4c(c3)[C@@H]3C[C@@H]4CNC3=O)ncc2C(F)(F)F)c1	CDKL3	%	2
CC(C(=O)NC1CCN(c2ccnc(Nc3ccc(F)cc3)n2)C1)c1ccc(Cl)cc1 (stereo not drawn)	CDKL3	%	0
COC(=O)c1cccc(NC(=O)NC2CCN(c3ccnc(NCc4ccc(F)cc4)n3)CC2)c1	CDKL3	%	0
COc1cc2nccc(Nc3ccc(Oc4ccccc4)cc3)c2cc1OC.Cl	CDKL3	%	0
C[C@@H](Oc1cc(-n2cnc3ccc(-c4ccncc4)cc32)sc1C(N)=O)c1ccccc1Cl	CDKL3	%	32
O=C1NCCc2[nH]c(-c3ccncc3)cc21	CDKL3	%	2
COc1cccc(C2=C(Nc3cccc(Cl)c3)C(=O)NC2=O)c1	CDKL3	%	0

Each compound below has a reported value. Please supply its %Inh.
1. CNC(=O)c1ccccc1Nc1nc(Nc2cccc(CS(C)(=O)=O)c2)ncc1C.O=CO
2. Cc1ccc(Nc2ccnc(Nc3ccc4c(c3)CS(=O)(=O)C4)n2)cc1O.Cl
3. Nc1nccc(-c2ccc3c(N)n[nH]c3c2)n1
4. CN(c1ccccc1CNc1nc(Nc2ccc3c(c2)CC(=O)N3)ncc1C(F)(F)F)S(C)(=O)=O
5. O=C(Nc1ccccc1)c1cccc(Oc2ccc3nccn3n2)c1
6. CS(=O)(=O)Nc1ccc(-c2ccnc3[nH]ccc23)cc1
7. C[C@@H](Oc1cc(-n2cnc3cc(-c4ccncc4)ccc32)sc1C(N)=O)c1ccccc1Cl
8. COc1cc2ncn(-c3cc(OCC4CCCCC4)c(C(N)=O)s3)c2cc1OC

Response:
1. 0
2. 0
3. 30
4. 0
5. 0
6. 0
7. 0
8. 0

====

So I've got a bunch of compounds here, and I need their %Inh values.
test system: TGFBR2; conditions: concentration: 1 μM,replicates: in singlicate; n = 1
One number for each entry, in %.

compound	measurement-units	%Inh
COc1cccc(CNC(=O)NC2CCN(c3ccnc(Nc4cc(OC)c(OC)c(OC)c4)n3)C2)c1 (stereo not drawn)	%	0
CCN1CCN(CCCC(=O)Nc2n[nH]c3nc(-c4ccc(O)cc4)c(Br)cc23)CC1	%	0
O=C(Nc1ccccc1)c1cccc(Oc2ccc3nccn3n2)c1	%	0

Each compound below has a reported value. Please supply its %Inh.
1. Cc1ccc2c(-c3ccnc(Nc4ccc(C(F)(F)F)cc4)n3)cnn2n1
2. Cl.c1ccc(Oc2ccc(Nc3ccnc4cc(-c5ccc(CN6CCNCC6)o5)ccc34)cc2)nc1
3. CNC(=O)c1ccccc1Nc1nc(Nc2cccc(CS(C)(=O)=O)c2)ncc1C.O=CO
4. NC(=O)c1ccc(-c2cc3ncnc(SCC(=O)O)c3s2)cc1
5. CS(=O)(=O)Nc1ccc(-c2ccnc3[nH]ccc23)cc1

Response:
1. 60
2. 0
3. 37
4. 40
5. 0

Each compound below has a reported value. Please supply its %Inh.
1. Cc1n[nH]c2cc(Nc3ccnc(Nc4cccc(CN5CCOCC5)c4)n3)ccc12
2. COc1cc2c(Nc3ccc(NC(=O)c4ccccc4)cc3)ncnc2cc1OCCCN1CCOCC1
3. COc1ccc(Nc2nccc(N3CCC(NC(=O)c4cccc(C#N)c4)C3)n2)cc1 (stereo not drawn)
4. c1ccc(Oc2ccc(Nc3ccnc4ccc(-c5ccccn5)cc34)cc2)cc1
5. Cn1ccc2ncnc(Oc3ccc(NC(=O)Nc4cccc(C(F)(F)F)c4)c(F)c3)c21

Response:
[84, 0, 0, 0, 19]

Each compound below has a reported value. Please supply its %Inh.
1. O=C1NCCc2[nH]c(-c3ccncc3)cc21
2. C[C@@H](Oc1cc(-n2cnc3cc(-c4ccncc4)ccc32)sc1C(N)=O)c1ccccc1Cl
3. CCn1c(-c2nonc2N)nc2cncc(Br)c21
4. NC(=O)Nc1sc(-c2ccc(F)cc2)cc1C(N)=O
5. CN(c1ccccc1CNc1nc(Nc2ccc3c(c2)CC(=O)N3)ncc1C(F)(F)F)S(C)(=O)=O
6. CN1CCN(CCCNc2nccc(-c3c(-c4ccc(F)cc4)nn4cc(C(N)=O)ccc34)n2)CC1
7. Cn1ccc2ncnc(Oc3ccc(NC(=O)Nc4ccnc(C(F)(F)F)c4)c(Cl)c3)c21
8. CCNCC(Cc1ccccc1)NC(=O)c1cc(Br)c(-c2ccnc3[nH]ccc23)s1.Cl.Cl (stereo not drawn)

Response:
[44, 0, 0, 0, 16, 77, 53, 0]

====

tested on: CAMK1; settings: concentration: 1 μM,replicates: in singlicate; n = 1
So I've got a bunch of compounds here, and I need their %Inh values.
Numbers only, in %.

Examples with answers:
compound	parameter	measurement-units	reading
Cc1ccc(Nc2ccnc(Nc3ccc4c(c3)CS(=O)(=O)C4)n2)cc1O.Cl	%Inh	%	62
CN1CCN(CCNc2nc3cc(Oc4ccc(NC(=O)Nc5cc(C(F)(F)F)ccc5F)cc4)ccc3[nH]2)CC1.Cl.Cl	%Inh	%	15
OCCn1cc(-c2cnc3nnn(Cc4ccc5ncccc5c4)c3n2)cn1	%Inh	%	0

Each compound below has a reported value. Please supply its %Inh.
1. Cn1ccc2ncnc(Oc3ccc(NC(=O)Nc4ccnc(C(F)(F)F)c4)c(Cl)c3)c21
2. CSc1nccc(-c2c(-c3ccc(F)cc3)ncn2CCCN2CCOCC2)n1.Cl
3. Cc1ccc(C(=O)Nc2ccc(Oc3ccc4nc(NC(=O)C5CC5)cn4c3)c(F)c2)c(=O)n1-c1ccccc1
4. CCCC(=O)Nc1n[nH]c2ncccc12
5. Cc1cccc2c(-c3ccncc3)c(-c3ccc(F)cc3)nn12.Cl
6. CS(=O)c1ccc(-c2coc3ccc(-c4n[nH]c(=O)o4)cc23)cc1 (centres unmarked)
7. O=C(Nc1ccc(Oc2ccc3nc(NC(=O)C4CC4)cn3n2)c(F)c1)c1cccn(-c2ccccc2)c1=O

Response:
1: 0; 2: 6; 3: 0; 4: 0; 5: 0; 6: 0; 7: 5

Query: Entry under review: C[C@@H](Oc1cc(-n2cnc3ccc(-c4ccncc4)cc32)sc1C(N)=O)c1ccccc1Cl . Reported %Inh?
Response: 40

====

So I've got a bunch of molecules here, and I need their %Inh values.
test system: FGFR1; conditions: concentration: 1 μM,replicates: in singlicate; n = 1
One number for each entry, in %.

Examples with answers:
molecule	reading
O=C(Nc1ccccc1)c1cccc(Oc2ccc3nccn3n2)c1	41
Cl.Nc1n[nH]c2cc(-c3ccccn3)ccc12 [GSK2189892]	0
CC(C)S(=O)(=O)N1CCN(Cc2ccc3c(c2)nc(NC(=O)c2ccsc2)n3C[C@H](O)c2ccccc2)CC1 [GW635815]	12
CS(=O)(=O)c1cccc(CNc2nc(Nc3ccc4c(c3)[C@@H]3C[C@@H]4CNC3=O)ncc2C(F)(F)F)c1	86
O=C(NCC1CC1)c1ccc(-c2cc(C(=O)NC3CC3)ccc2F)cc1 [GW810445]	0

Each molecule below has a reported value. Please supply its %Inh.
1. CCn1c(-c2nonc2N)nc2cncc(CNC3CCNCC3)c21.Cl [SB-747651]
2. C[C@@H]1CNc2c(sc3ccc4nc(-c5ccc(O)cc5)ccc4c23)C(=O)N1
3. CC(=O)c1c(-c2ccncc2)[nH]c(-c2ccncc2)c1C [GW493036]
4. CN1CCN(CCCNc2nccc(-c3c(-c4ccc(F)cc4)nn4cc(C(N)=O)ccc34)n2)CC1 [GW622475]
5. CCOC(=O)N1CCC(n2cnc(-c3ccc(F)cc3)c2-c2ccnc(N)n2)CC1 [SB-219952]
6. CN1CCN(CCNc2nc3cc(Oc4ccc(NC(=O)Nc5cc(C(F)(F)F)ccc5F)cc4)ccc3[nH]2)CC1.Cl.Cl [GW768504]

Response:
0
14
0
28
0
6

Each molecule below has a reported value. Please supply its %Inh.
1. C[C@@H](Oc1cc(-n2cnc3ccc(-c4ccncc4)cc32)sc1C(N)=O)c1ccccc1Cl [GSK483724]
2. Cc1nnc(-c2ccc3occ(-c4ccc(S(C)=O)cc4)c3n2)o1 (stereo not drawn)

Response:
[11, 0]

Each molecule below has a reported value. Please supply its %Inh.
1. OCCn1cc(-c2cnc3nnn(Cc4ccc5ncccc5c4)c3n2)cn1
2. CS(=O)(=O)Nc1ccc(-c2ccnc3[nH]ccc23)cc1 [GSK993273]
3. O=C(Nc1ccc(Oc2ccc3nc(NC(=O)C4CC4)cn3n2)c(F)c1)c1cccn(-c2ccccc2)c1=O
4. CN(c1ccc2c(c1)nc(NCc1ccc(F)cc1)n2C)c1ccnc(Nc2ccc(CS(C)(=O)=O)cc2)n1.Cl [GW813244]
5. CNC(=O)c1ccccc1Nc1nc(Nc2cccc(CS(C)(=O)=O)c2)ncc1C.O=CO [GSK1520489]
6. COC(=O)Nc1nc2cc(Oc3ccc(NC(=O)Nc4cc(C(F)(F)F)ccc4Cl)cc3)ccc2[nH]1.Cl [GW697465]
7. O=C(Nc1n[nH]c2cc(-c3ccco3)ccc12)C1CC1 [SB-737447]

Response:
1: 0; 2: 29; 3: 0; 4: 75; 5: 99.9; 6: 4; 7: 14

Each molecule below has a reported value. Please supply its %Inh.
1. Cc1cccc(-c2nc(Nc3ccncc3)c3sccc3n2)n1 [GW869641]
2. C[C@@H](Oc1cc(-n2cnc3cc(-c4cnn(C)c4)ccc32)sc1C(N)=O)c1ccccc1Cl [GSK580432]
3. CC(C(=O)NC1CCN(c2ccnc(Nc3ccc(F)cc3)n2)C1)c1ccc(Cl)cc1 (stereo not drawn) [GSK1379713]
4. CCNCC(Cc1ccccc1)NC(=O)c1cc(Br)c(-c2ccnc3[nH]ccc23)s1.Cl.Cl (stereo not drawn) [GSK1383280]
5. C[C@@H]1CCN(C(=O)N2CCCC2)C[C@@H]1N(C)c1ncnc2[nH]ccc12

Response:
16
91.9
0
88
13

Each molecule below has a reported value. Please supply its %Inh.
1. O=C1NCCc2[nH]c(-c3ccncc3)cc21
2. O=c1[nH]cc(-c2ccc(O)cc2)c2sc(-c3ccncc3)cc12 [GSK1033723]

Response:
1. 0
2. 0
